# Measurement Protocol: self-splicing fitness, log relative to wild type (ln ratio); higher = more splicing; Tetrahymena group I intron in knt gene, E. coli kanamycin selection, DiMSum; sequences stand for … in CUCUCU…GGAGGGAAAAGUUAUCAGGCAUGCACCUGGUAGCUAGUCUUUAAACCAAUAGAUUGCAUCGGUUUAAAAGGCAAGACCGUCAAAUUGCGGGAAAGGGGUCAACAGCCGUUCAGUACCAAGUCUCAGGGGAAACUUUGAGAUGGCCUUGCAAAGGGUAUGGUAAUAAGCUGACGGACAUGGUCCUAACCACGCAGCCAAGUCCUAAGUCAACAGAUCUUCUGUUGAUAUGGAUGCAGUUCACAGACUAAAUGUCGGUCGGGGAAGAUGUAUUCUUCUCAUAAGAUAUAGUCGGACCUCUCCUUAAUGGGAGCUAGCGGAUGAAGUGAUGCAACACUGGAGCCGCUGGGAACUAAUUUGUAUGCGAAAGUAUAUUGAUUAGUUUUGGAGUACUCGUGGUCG;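 note: selection with 25 µg/mL kanamycin versus none on LB agar overnight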
# Assay Context: 37 °C
Provide the recorded self-splicing fitness (ln) for the entries that follow.
Answers are plain numbers.

Example entries begin here.
CGAGAGCAAUAUUACGGGAU
-2.53
CUAUAGCAAUAUUACGGAUA
-2.24
CUAGAGCAAUAUUACGGGGU
-2.6
UGUAAGCAAUAUUACGGGGU
-2.24
GCAUAGCAAUAUUACGAUUU
0.225
UAGCAGCAAUAUUACGUGCU
-1.9
AGCGAGCAAUAUUACGGUGG
-2.11
GAAAAGCAAUAUUACGUAGG
-1.96
GGGAAGCAAUAUUACGCAUC
-1.77
CGCCAGCAAUAUUACGAGUG
-1.59

Lab note: each sequence below needs its self-splicing fitness (ln) filled in.
1. UCACAGCAAUAUUACGACGA
2. ACUAAGCAAUAUUACGUAGA
3. UUUAAGCAAUAUUACGGUGC
4. ACCUAGCAAUAUUACGAUCU
5. UAGUAGCAAUAUUACGAGUU
6. UCGUAGCAAUAUUACGUUAU

1: -0.228; 2: -1.28; 3: -2.01; 4: 0.0427; 5: -2.75; 6: -2.64

----------
# Measurement Protocol: self-splicing fitness, log relative to wild type (ln ratio); higher = more splicing; Tetrahymena group I intron in knt gene, E. coli kanamycin selection, DiMSum; sequences stand for … in CUCUCU…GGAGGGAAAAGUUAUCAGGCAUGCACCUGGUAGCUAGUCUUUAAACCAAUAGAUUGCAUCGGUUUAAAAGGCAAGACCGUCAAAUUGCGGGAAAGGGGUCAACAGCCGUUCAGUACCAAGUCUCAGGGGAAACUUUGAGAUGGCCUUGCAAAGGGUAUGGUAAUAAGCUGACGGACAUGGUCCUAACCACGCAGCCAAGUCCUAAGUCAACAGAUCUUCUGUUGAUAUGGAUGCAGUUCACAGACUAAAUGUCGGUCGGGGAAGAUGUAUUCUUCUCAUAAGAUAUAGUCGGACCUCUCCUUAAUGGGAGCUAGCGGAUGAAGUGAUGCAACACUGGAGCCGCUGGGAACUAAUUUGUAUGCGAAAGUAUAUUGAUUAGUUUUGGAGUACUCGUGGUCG
# Assay Context: 30 °C
Please enter yes (1) where self-splicing fitness (ln) is greater than or equal to -3, and no (0) where it is lower.

CAUAAGCAAUAUUACGGGUG
yes (1)
AAUAAGCAAUAUUACGGCGG
yes (1)
UGUCAGCAAUAUUACGUUGG
no (0)
CGCCAGCAAUAUUACGGUGU
yes (1)
CCUGAGCAAUAUUACGCGUC
yes (1)
AGAAAGCAAUAUUACGGUCU
yes (1)
CUCGAGCAAUAUUACGUUAG
no (0)
AGCGAGCAAUAUUACGUGAG
no (0)

Identify whether the reported self-splicing fitness (ln) of the following sequence is -3 or greater: UGUGAGCAAUAUUACGGAAU
no (0)

Identify whether the reported self-splicing fitness (ln) of the following sequence is -3 or greater: UAACAGCAAUAUUACGGACU
yes (1)

Identify whether the reported self-splicing fitness (ln) of the following sequence is -3 or greater: CACGAGCAAUAUUACGCACA
yes (1)

Identify whether the reported self-splicing fitness (ln) of the following sequence is -3 or greater: CGCGAGCAAUAUUACGCAAU
no (0)

Identify whether the reported self-splicing fitness (ln) of the following sequence is -3 or greater: AGGCAGCAAUAUUACGGUUU
yes (1)

Identify whether the reported self-splicing fitness (ln) of the following sequence is -3 or greater: AACCAGCAAUAUUACGAGGC
no (0)

----------
# Measurement Protocol: self-splicing fitness, log relative to wild type (ln ratio); higher = more splicing; Tetrahymena group I intron in knt gene, E. coli kanamycin selection, DiMSum; sequences stand for … in CUCUCU…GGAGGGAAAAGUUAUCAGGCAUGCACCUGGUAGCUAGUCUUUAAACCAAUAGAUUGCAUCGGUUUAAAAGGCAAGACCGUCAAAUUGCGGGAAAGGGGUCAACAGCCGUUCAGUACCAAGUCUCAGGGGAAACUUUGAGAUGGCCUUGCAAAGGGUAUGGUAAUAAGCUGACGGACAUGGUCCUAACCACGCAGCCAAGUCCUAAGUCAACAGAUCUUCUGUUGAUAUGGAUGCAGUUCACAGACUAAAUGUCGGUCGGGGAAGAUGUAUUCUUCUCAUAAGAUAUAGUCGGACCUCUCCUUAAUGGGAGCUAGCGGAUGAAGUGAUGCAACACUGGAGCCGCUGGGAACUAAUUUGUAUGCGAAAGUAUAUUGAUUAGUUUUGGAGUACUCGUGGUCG
# Assay Context: 30 °C
Please enter rule met where self-splicing fitness (ln) is greater than or equal to -1, and rule not met where it is lower.

The following sequences have reported results that may help.
AUGAAGCAAUAUUACGGGUU
rule not met
UUUGAGCAAUAUUACGGUCG
rule not met
GCGUAGCAAUAUUACGAUGG
rule not met
GCAUAGCAAUAUUACGAACA
rule not met
UCCCAGCAAUAUUACGGCGA
rule met
CUUGAGCAAUAUUACGUUGG
rule not met
AUCAAGCAAUAUUACGCGCC
rule not met
UCUUAGCAAUAUUACGGCAG
rule not met

Identify whether the reported self-splicing fitness (ln) of the following sequence is -1 or greater: AGACAGCAAUAUUACGAAUA
rule not met

Identify whether the reported self-splicing fitness (ln) of the following sequence is -1 or greater: CUCAAGCAAUAUUACGCAGG
rule not met

Identify whether the reported self-splicing fitness (ln) of the following sequence is -1 or greater: AAGGAGCAAUAUUACGUGGG
rule not met

Identify whether the reported self-splicing fitness (ln) of the following sequence is -1 or greater: CAAGAGCAAUAUUACGCGCA
rule not met

Identify whether the reported self-splicing fitness (ln) of the following sequence is -1 or greater: GGGCAGCAAUAUUACGGAUG
rule not met

----------
# Measurement Protocol: self-splicing fitness, log relative to wild type (ln ratio); higher = more splicing; Tetrahymena group I intron in knt gene, E. coli kanamycin selection, DiMSum; sequences stand for … in CUCUCU…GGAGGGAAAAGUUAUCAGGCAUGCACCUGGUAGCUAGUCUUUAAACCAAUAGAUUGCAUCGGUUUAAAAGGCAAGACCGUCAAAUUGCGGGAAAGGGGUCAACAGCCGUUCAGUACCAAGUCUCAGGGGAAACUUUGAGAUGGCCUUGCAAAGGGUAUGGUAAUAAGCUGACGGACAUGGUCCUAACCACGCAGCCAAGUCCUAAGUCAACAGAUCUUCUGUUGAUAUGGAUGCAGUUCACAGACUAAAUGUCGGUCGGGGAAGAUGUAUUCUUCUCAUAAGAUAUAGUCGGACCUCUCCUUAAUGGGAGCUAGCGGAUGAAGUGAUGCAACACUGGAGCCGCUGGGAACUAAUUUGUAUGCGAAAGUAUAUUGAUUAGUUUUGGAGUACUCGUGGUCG
# Assay Context: 37 °C
Please enter YES where self-splicing fitness (ln) is greater than or equal to -1, and NO where it is lower.

Identify whether the reported self-splicing fitness (ln) of the following sequence is -1 or greater: GGCCAGCAAUAUUACGAACG
YES

Identify whether the reported self-splicing fitness (ln) of the following sequence is -1 or greater: UAUGAGCAAUAUUACGCGGC
NO

Identify whether the reported self-splicing fitness (ln) of the following sequence is -1 or greater: UUAGAGCAAUAUUACGUUGC
NO

Identify whether the reported self-splicing fitness (ln) of the following sequence is -1 or greater: GCUAAGCAAUAUUACGAUUA
YES

Identify whether the reported self-splicing fitness (ln) of the following sequence is -1 or greater: GUCUAGCAAUAUUACGAGCU
YES

Identify whether the reported self-splicing fitness (ln) of the following sequence is -1 or greater: UACAAGCAAUAUUACGGAGA
NO

Identify whether the reported self-splicing fitness (ln) of the following sequence is -1 or greater: CCUAAGCAAUAUUACGUUAC
NO

Identify whether the reported self-splicing fitness (ln) of the following sequence is -1 or greater: UGGGAGCAAUAUUACGGAUA
NO

Identify whether the reported self-splicing fitness (ln) of the following sequence is -1 or greater: AGGUAGCAAUAUUACGGAUG
NO

Identify whether the reported self-splicing fitness (ln) of the following sequence is -1 or greater: GGCCAGCAAUAUUACGUUGU
YES

Identify whether the reported self-splicing fitness (ln) of the following sequence is -1 or greater: AUGCAGCAAUAUUACGUGAA
YES

Identify whether the reported self-splicing fitness (ln) of the following sequence is -1 or greater: GCUGAGCAAUAUUACGAGAG
NO

Identify whether the reported self-splicing fitness (ln) of the following sequence is -1 or greater: UAAUAGCAAUAUUACGGAGG
NO

Identify whether the reported self-splicing fitness (ln) of the following sequence is -1 or greater: UCCAAGCAAUAUUACGACAC
NO

Identify whether the reported self-splicing fitness (ln) of the following sequence is -1 or greater: UCUAAGCAAUAUUACGGACG
NO

Identify whether the reported self-splicing fitness (ln) of the following sequence is -1 or greater: CUUAAGCAAUAUUACGGGAA
NO

Identify whether the reported self-splicing fitness (ln) of the following sequence is -1 or greater: CCAGAGCAAUAUUACGAGAC
NO

Identify whether the reported self-splicing fitness (ln) of the following sequence is -1 or greater: AGCAAGCAAUAUUACGCAUC
NO

Identify whether the reported self-splicing fitness (ln) of the following sequence is -1 or greater: CCUUAGCAAUAUUACGGCCU
YES
